Taken from ChEMBL document CHEMBL4387724.

Quick reference for inhibition of growth at 3 µM among some molecules
- System: HeLa
- experimental.details: Cytotoxicity against human HeLa cells assessed as reduction in cell growth at 3 uM incubated for 72 hrs by MTT assay relative to control
- Format: functional
- measurement.context: read-out: GI
Report the figure in % without appending any unit label.

Cc1ccnc(/C(N)=N/NC(=S)N2CCOCC2)c1 | 44.7

Asked: Entry `N/C(=N\NC(=S)N1CCCCC1)c1ccccn1` : reported inhibition of growth at 3 µM = ?
Given back: 49.2

* * *

Property: inhibition of growth at 100 µM; scope: individual compounds
- Test system: A-431
- experimental.details: Cytotoxicity against human A431 cells assessed as reduction in cell growth at 100 uM incubated for 72 hrs by MTT assay relative to control
- Format: functional
- measurement.context: A-431, 72 h, read-out: GI
Expressed in %, but write only the number.

Guide cases for inhibition of growth at 100 µM, answers given:
Cc1ccnc(/C(N)=N/NC(=S)N2CCOCC2)c1 | 82.8
N/C(=N\NC(=S)N1CCOCC1)c1ccc(F)cn1 | 85.6
N/C(=N\NC(=S)N1CCN(c2ccccn2)CC1)c1ccc(F)cn1 | 77.1
N/C(=N\NC(=S)N1CCSCC1)c1ccccn1 | 80.8

Asked: # query: inhibition of growth at 100 µM of entry `Cc1ccnc(/C(N)=N/NC(=S)N2CCCCC2)c1`
Given back: 77.6
